The reported numbers originate from the supplement of paper PMC5908809.

percent inhibition of viability reference
- System: normal primary NK cells, pool 1 (3 donors), resting (IL-2 0 ng/mL)
- assay-details: percent inhibition of viability; higher = more inhibition
- protocol-conditions: 72 h; 1 nM
metric-name: percent inhibition of viability (%)

compound: CN1CC[C@H](c2c(O)cc(O)c3c(=O)cc(-c4ccccc4Cl)oc23)[C@H](O)C1 [Alvocidib] (max concentration tested 10000 nM)
metric-name: percent inhibition of viability
recorded-value: 6.48
//
compound: COc1cccc2c1c(O)c(C(=O)N(C)c1ccc(C(F)(F)F)cc1)c(=O)n2C [Tasquinimod] (max concentration tested 10000 nM)
metric-name: percent inhibition of viability
recorded-value: 8.18
//
compound: CN(C)C/C=C/C(=O)Nc1cc2c(Nc3ccc(F)c(Cl)c3)ncnc2cc1O[C@H]1CCOC1 [Afatinib] (max concentration tested 1000 nM)
metric-name: percent inhibition of viability
recorded-value: -21.3

###

- Test system: SNK-6 (IL-2 2.5 ng/mL)
- assay-details: percent inhibition of viability; higher = more inhibition
- protocol-conditions: 72 h; 1000 nM
Each entry below carries its reported percent inhibition of viability.
metric-name: percent inhibition of viability (%)

molecule: CNC(=O)c1cccc2cc(Oc3ccnc4cc(OCC5(N)CC5)c(OC)cc34)ccc12 [Lucitanib] (max concentration tested 10000 nM)
metric-name: percent inhibition of viability
recorded-value: -8.69
--
molecule: O=C(/C=C\n1cnc(-c2cc(C(F)(F)F)cc(C(F)(F)F)c2)n1)NNc1cnccn1 [Selinexor] (max concentration tested 10000 nM)
metric-name: percent inhibition of viability
recorded-value: 81.6
--
molecule: COc1cc(O)c2c(c1)/C=C/C[C@H](O)[C@H](O)C(=O)/C=C\C[C@H](C)OC2=O [(5Z)-7-Oxozeaenol] (max concentration tested 10000 nM)
metric-name: percent inhibition of viability
recorded-value: 23.5
--
molecule: CC(C)C[C@@H](C(=O)N[C@H](C(=O)OC1CCCC1)c1ccccc1)[C@H](O)C(=O)NO [Tosedostat] (max concentration tested 10000 nM)
metric-name: percent inhibition of viability
recorded-value: -26.7
--
molecule: CN(c1ccccc1CNc1nc(Nc2ccc3c(c2)CC(=O)N3)ncc1C(F)(F)F)S(C)(=O)=O (max concentration tested 10000 nM)
metric-name: percent inhibition of viability
recorded-value: 15.3
--
molecule: Cc1cc(C(=O)NOCCO)c(Nc2ccc(I)cc2F)n(C)c1=O [AZD-8330] (max concentration tested 10000 nM)
metric-name: percent inhibition of viability
recorded-value: -18.2
--
molecule: O=c1[nH]c(=O)n([C@H]2C[C@H](O)[C@@H](CO)O2)cc1F [Floxuridine] (max concentration tested 10000 nM)
metric-name: percent inhibition of viability
recorded-value: 91.8

###

- System: KHYG-1 (IL-2 2.5 ng/mL)
- assay-details: relative IC50 (inflection point of fitted viability curve, relative to fitted max inhibition); higher = less sensitive
- protocol-conditions: 72 h
Below, each of the compounds is paired with its reported relative IC50 value.

structure-smiles-string: FC(F)(F)c1ccc(/C=C/c2nc(COc3ccc(CCCCn4ccnn4)cc3)co2)cc1
relative IC50: 45.7 nM
//
structure-smiles-string: CN(C)C(=O)c1cc2cnc(Nc3ccc(N4CCNCC4)cn3)nc2n1C1CCCC1
relative IC50: 1060 nM
//
structure-smiles-string: CC(C)Oc1ccc(C(=O)N[C@H](CNC(=O)CN(C)C)Cc2ccc(-c3cn4cccc([C@H](C)O)c4n3)cc2)cc1Cl
relative IC50: 123 nM
//
structure-smiles-string: CCS(=O)(=O)c1cccc(-c2cc(C(=O)NC3CCN(C)CC3)c(C)c3[nH]c4ncc(C)cc4c23)c1
relative IC50: 208 nM
